assaySystem: HER2 (Homo sapiens (Human))
Sequence (P04626 23-1255): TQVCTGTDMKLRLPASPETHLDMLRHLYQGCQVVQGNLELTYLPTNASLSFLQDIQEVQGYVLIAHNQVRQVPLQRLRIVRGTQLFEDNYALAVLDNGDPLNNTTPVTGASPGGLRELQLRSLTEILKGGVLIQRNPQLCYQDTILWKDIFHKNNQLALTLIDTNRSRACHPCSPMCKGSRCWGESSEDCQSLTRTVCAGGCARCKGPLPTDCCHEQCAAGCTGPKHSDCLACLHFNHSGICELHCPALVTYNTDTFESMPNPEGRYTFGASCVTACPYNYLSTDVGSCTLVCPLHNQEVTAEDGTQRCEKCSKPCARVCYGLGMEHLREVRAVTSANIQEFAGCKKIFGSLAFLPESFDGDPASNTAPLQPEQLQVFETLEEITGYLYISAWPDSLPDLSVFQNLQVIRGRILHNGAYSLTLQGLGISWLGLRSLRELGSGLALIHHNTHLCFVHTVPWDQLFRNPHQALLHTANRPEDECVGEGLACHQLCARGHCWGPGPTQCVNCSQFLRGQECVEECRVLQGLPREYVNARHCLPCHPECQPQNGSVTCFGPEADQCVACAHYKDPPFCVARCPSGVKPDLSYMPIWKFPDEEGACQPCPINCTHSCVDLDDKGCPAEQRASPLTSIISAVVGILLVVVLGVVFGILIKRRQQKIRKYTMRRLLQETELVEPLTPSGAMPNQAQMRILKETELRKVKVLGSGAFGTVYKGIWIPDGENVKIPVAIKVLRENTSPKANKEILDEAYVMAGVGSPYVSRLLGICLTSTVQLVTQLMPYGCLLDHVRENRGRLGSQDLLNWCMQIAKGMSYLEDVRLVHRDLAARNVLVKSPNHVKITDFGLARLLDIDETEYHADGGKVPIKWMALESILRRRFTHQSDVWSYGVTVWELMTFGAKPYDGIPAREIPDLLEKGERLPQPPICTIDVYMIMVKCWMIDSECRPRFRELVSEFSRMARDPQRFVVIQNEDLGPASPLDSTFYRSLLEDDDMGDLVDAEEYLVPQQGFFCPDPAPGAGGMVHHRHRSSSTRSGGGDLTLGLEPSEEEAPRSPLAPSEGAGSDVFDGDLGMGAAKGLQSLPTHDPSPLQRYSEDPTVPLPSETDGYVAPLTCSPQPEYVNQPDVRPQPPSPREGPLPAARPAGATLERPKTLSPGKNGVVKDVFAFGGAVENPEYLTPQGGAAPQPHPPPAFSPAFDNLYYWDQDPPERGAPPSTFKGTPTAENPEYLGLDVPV
protocolSummary: BT474 cellular assay (HER2 inhibition), phospho-HER2 ELISA
experimentalContext: inhibition of phosphor HER2, BT474 cells, 2 hours compound incubation
Label TRUE when IC50 < 60 nM; otherwise FALSE.

Task item: In plain terms, does `Cc1cc(Nc2ncnc3ccc(NC(=O)/C=C/CN(C)C)c(O[C@@H]4CCN(C)CC4(F)F)c23)ccc1Oc1cc2ncnn2cn1` come in under 60 nM for IC50?
Reply: FALSE

Task item: In plain terms, does COc1ccc2ncnc(Nc3ccc(Oc4cc5ncnn5cn4)c(C)c3)c2c1N1CC2(C[C@H](F)CCN2C)C1 (single isomer, unassigned) come in under 60 nM for IC50?
Reply: TRUE

Task item: In plain terms, does `Cc1cc(Nc2ncnc3ccc(O[C@H]4CCOC4)c(O[C@H]4CCN(C)CC4(F)F)c23)ccc1Oc1cc2ncnn2cn1` come in under 60 nM for IC50?
Reply: TRUE

Task item: In plain terms, does `COc1ccc2ncnc(Nc3ccc(Oc4cc5ncnn5cn4)c(C)c3)c2c1O[C@H]1CCN(C)CC1(F)F` come in under 60 nM for IC50?
Reply: TRUE

Task item: In plain terms, does `C=CC(=O)N1CC=C(c2ccc3ncnc(Nc4ccc(Oc5cc6ncnn6cn5)c(C)c4)c3c2N2CC(N(C)C)C2)CC1` come in under 60 nM for IC50?
Reply: FALSE

Task item: In plain terms, does `COc1ccc2ncnc(Nc3ccc(Oc4cc5ncnn5cn4)c(C)c3)c2c1O[C@@H]1CN(C)CC1(F)F` come in under 60 nM for IC50?
Reply: TRUE

Task item: In plain terms, does COc1ccc2ncnc(Nc3ccc(Oc4cc5ncnn5cn4)c(C)c3)c2c1N1CC2(C[C@@H](F)CCN2C)C1 (single isomer, unassigned) come in under 60 nM for IC50?
Reply: TRUE

Task item: In plain terms, does `Cc1cc(Nc2ncnc3ccc(O[C@H]4CCOC4)c(O[C@@H]4CCN(C)CC4(F)F)c23)ccc1Oc1cc2ncnn2cn1` come in under 60 nM for IC50?
Reply: TRUE

Task item: In plain terms, does `COc1ccc2ncnc(Nc3ccc(Oc4cc5ncnn5cn4)c(C)c3)c2c1N1C[C@@H](F)[C@H](N(C)C)C1` come in under 60 nM for IC50?
Reply: FALSE

Task item: In plain terms, does `COc1ccc2ncnc(Nc3ccc(Oc4cc5ncnn5cn4)c(C)c3)c2c1OC1CCN(C)CC1` come in under 60 nM for IC50?
Reply: FALSE
